The reported numbers originate from PubChem BioAssay.

# Test system: Sam68 (KHDRBS1)
# EXPERIMENTAL_PROTOCOL: Sam68 small-molecule binders, primary screen, biochemical, small-molecule microarray, 635 nm fluorescence (AID 1125);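 further: score merges 667 nm channel intensity with signal to noise over triplicate slides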
# MEASUREMENT_SETUP: small-molecule microarray binding, higher = more signal
Please mark t if the recorded composite z-score is equal to or greater than 1, and f if it falls below.

INSERT INTO measurements (molecule, tested_target, cat) VALUES
  ('COC(=O)[C@@]1(Cc2ccc(F)cc2)[C@H]2c3cc(C(=O)N(C)C)n(Cc4ccccc4)c3C[C@H]2CN1C(=O)c1ccccc1', 'Sam68 (KHDRBS1)', 'f'),
  ('O=C1O[C@H](c2ccccc2)[C@H](c2ccccc2)N2[C@H]1[C@@H](C(=O)N1CCCCCCC1)[C@]1(C(=O)Nc3ccc(C#CCCO)cc31)[C@H]2c1ccccc1OCCO', 'Sam68 (KHDRBS1)', 't');

Now examine the next entry.
[Q] // inclusive: composite z-score at least 1? input: COC(=O)[C@@]1(Cc2ccc(F)cc2)[C@H]2c3cc(C(=O)N4CCCC4)n(CCCNc4ncc(C(F)(F)F)cc4Cl)c3C[C@H]2CN1C(=O)c1ccccc1
[A] f
